Biological target: T1, cynomolgus IL-1 beta (Sino Biological 90010-CNAE) (cynomolgus, UniProt P79182 117-268)
T1 sequence (looked up): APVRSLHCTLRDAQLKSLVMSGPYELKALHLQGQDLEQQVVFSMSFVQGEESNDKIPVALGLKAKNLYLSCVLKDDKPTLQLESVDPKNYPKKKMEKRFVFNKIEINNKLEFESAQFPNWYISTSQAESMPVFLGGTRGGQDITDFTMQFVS
Test: SPR, Fab captured via anti-Fab antibody, cynomolgus IL-1beta injected, 1:1 Langmuir fit
quantity kind: t½

Query: Look up t½ of bispecific anti-VEGF/anti-IL-1beta Fab fragment 1HVL2.3 (Fab, V domains shown, First expressed in E. coli TG1, later in HEK293) VH: EQLVESGGGLVKPGGSLRLSCAASGMVFSWNAMSWVRQAPGKGLEWVGSISPKGDHKYLNTKFIGRFTISRDNSKNTLYLQMNSLRAEDTAVYYCAKDIGFFDVWGQGTLVTVSS VL: AIYMHQEPSSLSASVGDRVTITCHGSYWLSNYLAWYQQKPGKAPKLLIYDASYRIIGVPSRFSGSGSHEDYTLTISSLQPEDFATYYCQQYRYHPYTFGHGTKVEIKR and report it.
Response: 36 s
